test: Particle size, PDI, Zeta and entrapment efficiency of each LNP@mRNA; assay type: physicochemical; conditions: LNP@mRNA of compound:cholesterol:DSPC:PEG-DMG 50:38.5:10:1.5 molar, luciferase mRNA, PBS pH 7.4 (Example 25)
Please note: Entrapment efficiency (%) exactly at 80% is Not satisfied. Only values below 80% get Satisfied.

Enquiry: Report whether reported Entrapment efficiency (%) is lower than 80% (strictly) for CCCCCCCCC(CCCCCC)C(=O)OCCCCOC(=O)CCN(CCCO)CCC(=O)OCCCCOC(=O)C(CCCCCC)CCCCCCCC (centres unmarked)
Return: Not satisfied

Enquiry: Quick check: does CCCCCCCCC(CCCCCC)C(=O)OCCCCOC(=O)CCN(CCO)CCC(=O)OCCCCOC(=O)C(CCCCCC)CCCCCCCC (centres unmarked) have Entrapment efficiency (%) under 80%?
Return: Not satisfied

Enquiry: I'd appreciate it if you could check whether CCCCCCCCC(CCCCCC)C(=O)OCCCCOC(=O)CCN(CCCCO)CCC(=O)OCCCCOC(=O)C(CCCCCC)CCCCCCCC (centres unmarked) has Entrapment efficiency (%) smaller than 80%.
Return: Not satisfied

Enquiry: Hello, I'm reviewing records and need to know if Entrapment efficiency (%) of CCCCCCC(CCCC)C(=O)OCCCCOC(=O)CCN(CCCO)CCC(=O)OCCCCOC(=O)C(CCCC)CCCCCC (centres unmarked) is below 80%. Could you check?
Return: Satisfied

----------
assay: Particle size, PDI, Zeta and entrapment efficiency of each LNP@mRNA; type: physicochemical; conditions: LNP@mRNA of compound:cholesterol:DSPC:PEG-DMG 50:38.5:10:1.5 molar, luciferase mRNA, PBS pH 7.4 (Example 25)
Please note: TRUE applies when PDI is 0.07 or greater, and FALSE applies otherwise.

Enquiry: Tell me whether PDI is at least 0.07 here: CCCCCCC(CCCC)C(=O)OCCCCOC(=O)CCN(CCCCO)CCC(=O)OCCCCOC(=O)C(CCCC)CCCCCC (centres unmarked)
Return: FALSE

Enquiry: Could you verify whether the entry CCCCCCC(CCCC)C(=O)OCCCCOC(=O)CCN(CCCO)CCC(=O)OCCCCOC(=O)C(CCCC)CCCCCC (centres unmarked) shows PDI of no less than 0.07?
Return: FALSE

Enquiry: Identify whether the reported PDI of the following compound is 0.07 or greater: CCCCCCC(CCCC)C(=O)OCCCCOC(=O)CCN(CCO)CCC(=O)OCCCCOC(=O)C(CCCC)CCCCCC (centres unmarked)
Return: TRUE

Enquiry: Form field: PDI at least 0.07? Entry: CCCCCCCCC(CCCCCC)C(=O)OCCCCOC(=O)CCN(CCO)CCC(=O)OCCCCOC(=O)C(CCCCCC)CCCCCCCC (centres unmarked)
Return: FALSE

Enquiry: // inclusive: PDI at least 0.07? input: CCCCCCCCC(CCCCCC)C(=O)OCCCCOC(=O)CCN(CCCCCO)CCC(=O)OCCCCOC(=O)C(CCCCCC)CCCCCCCC (centres unmarked)
Return: TRUE

----------
assay: Particle size, PDI, Zeta and entrapment efficiency of each LNP@mRNA; assay type: physicochemical; settings: LNP@mRNA of compound:cholesterol:DSPC:PEG-DMG 50:38.5:10:1.5 molar, luciferase mRNA, PBS pH 7.4 (Example 25)
I'd appreciate it if you could supply Entrapment efficiency (%) values for the items below.
Output spec: scalar in %, unitless text.

Enquiry: Sample CCCCCCC(CCCC)C(=O)OCCCCOC(=O)CCN(CCO)CCC(=O)OCCCCOC(=O)C(CCCC)CCCCCC (stereo not shown) — what was its Entrapment efficiency (%)?
Return: 80

Enquiry: Entry under review: CCCCCCC(CCCC)C(=O)OCCCCOC(=O)CCN(CCCCCO)CCC(=O)OCCCCOC(=O)C(CCCC)CCCCCC (stereo not shown) . Reported Entrapment efficiency (%)?
Return: 82

Enquiry: # get_value(readout='Entrapment efficiency (%)', item= CCCCCCCCC(CCCCCC)C(=O)OCCCCOC(=O)CCN(CCCCCO)CCC(=O)OCCCCOC(=O)C(CCCCCC)CCCCCCCC (stereo not shown) )
Return: 82

Enquiry: Return reported Entrapment efficiency (%); argument: CCCCCCC(CCCC)C(=O)OCCCCOC(=O)CCN(CCCCO)CCC(=O)OCCCCOC(=O)C(CCCC)CCCCCC (stereo not shown)
Return: 82
